Record form. Attribute: Cell Viability, % of Control, PC-3. Fill in for each entry.
- Test system: human prostate PC-3 cancer cells
- assay.text: Cytotoxic activity (MTT assay)
- Format: cell-based
- setup.conditions: 100 µM, 24 h, MTT
- Protocol: The human prostate cancer cells PC-3 and CRL-1435 and the human embryonic kidney cells HEK-293 and CRL-1573TM were purchased from the American Type Culture Collection (ATCC; Manassas, VA, USA). […] PC-3 cells (5 × 10^3 cells/well) and HEK 293 cells (8 × 10^3 cells/well) were seeded in a 96-well plate and incubated overnight. […] The absorbance of the converted formazan was measured using a Multiskan FC microplate photometer (Thermo Scientific, Waltham, MA, USA) at λ = 570 nm. […]

Q) What measured Cell Viability, % of Control, PC-3 goes with CC1=CC(O)C2CC(C)(O)CCC2C1C(=O)CCO (stereo not drawn) [Compound 2, 11-epi-8-hydroxyzosteropenilline M] ?
A) 90.98 ± 2.82 % of Control

Q) For CC(=O)C1C2CCC(C)C(O)C2C=CC1(C)O (stereo not drawn) then?
A) 88.70 ± 1.10 % of Control

Q) For C[C@H]1C=C[C@H]2[C@H](O)[C@@H](C)CC[C@@H]2[C@H]1C(=O)CCO [Compound 8, 13-dehydroxypallidopenilline A] then?
A) 83.60 ± 1.81 % of Control

Q) For CC1(O)CCC2C(C=CC(C)(O)C2C(=O)CCO)C1 (stereo not drawn) [Compound 4, 8-hydroxyzosteropenilline G] then?
A) 94.71 ± 1.53 % of Control

Q) For `C[C@H]1CC[C@@H]2[C@@H](C(=O)CCO)[C@](C)(O)C=C[C@H]2C1` then?
A) 93.97 ± 2.36 % of Control

Q) For CC1CCC2C(C1)C(Cl)C(O)C(C)(O)C2C(=O)CCO (stereo not drawn) then?
A) 85.98 ± 2.13 % of Control

Q) For `CC(=O)OCCC(=O)[C@@H]1[C@H]2CC[C@H](C)[C@@H](O)[C@@H]2C=C[C@@]1(C)O` then?
A) 45.91 ± 0.67 % of Control

Q) For `CC(=O)[C@@H]1[C@H]2CC[C@@](C)(O)C[C@@H]2C=C[C@@]1(C)O` then?
A) 91.20 ± 3.37 % of Control

Q) For `C[C@H]1CC[C@H]2C(=C[C@@H](O)[C@@](C)(O)[C@@H]2C(=O)CCO)C1` then?
A) 96.44 ± 7.63 % of Control

====

- System: human prostate PC-3 cancer cells
- assay.text: Cytotoxic activity (MTT assay)
- Assay type: cell-based
- setup.conditions: 100 µM, 24 h, MTT
Record form. Attribute: Cell Viability, % of Control, PC-3. Fill in for each entry.

Q) What measured Cell Viability, % of Control, PC-3 goes with C[C@@]1(O)C=C[C@H]2C[C@@H](CO)CC[C@@H]2[C@H]1C(=O)CCO [Compound 12, zosteropenilline J] ?
A) 87.01 ± 2.71 % of Control

Q) For CC(=O)[C@@H]1[C@H]2CC[C@H](CO)C[C@@H]2C=C[C@@]1(C)O [Compound 6, zosteropenilline P] then?
A) 83.15 ± 1.72 % of Control

Q) For C[C@H]1CC[C@H]2[C@@H](C=C[C@@](C)(O)[C@@H]2C(=O)CCO)[C@@H]1O [Compound 13, pallidopenilline A] then?
A) 89.76 ± 3.31 % of Control

Q) For CC1=C[C@H](O)[C@H]2C[C@@H](C)CC[C@@H]2[C@H]1C(=O)CCO [Compound 1, zosteropenilline M] then?
A) 89.25 ± 0.44 % of Control

Cited source: paper PMC11277992
